tgt: Aspartate--tRNA(Asp/Asn) ligase (Mycobacterium tuberculosis (strain ATCC 25618 / H37Rv))
Sequence (whole entry): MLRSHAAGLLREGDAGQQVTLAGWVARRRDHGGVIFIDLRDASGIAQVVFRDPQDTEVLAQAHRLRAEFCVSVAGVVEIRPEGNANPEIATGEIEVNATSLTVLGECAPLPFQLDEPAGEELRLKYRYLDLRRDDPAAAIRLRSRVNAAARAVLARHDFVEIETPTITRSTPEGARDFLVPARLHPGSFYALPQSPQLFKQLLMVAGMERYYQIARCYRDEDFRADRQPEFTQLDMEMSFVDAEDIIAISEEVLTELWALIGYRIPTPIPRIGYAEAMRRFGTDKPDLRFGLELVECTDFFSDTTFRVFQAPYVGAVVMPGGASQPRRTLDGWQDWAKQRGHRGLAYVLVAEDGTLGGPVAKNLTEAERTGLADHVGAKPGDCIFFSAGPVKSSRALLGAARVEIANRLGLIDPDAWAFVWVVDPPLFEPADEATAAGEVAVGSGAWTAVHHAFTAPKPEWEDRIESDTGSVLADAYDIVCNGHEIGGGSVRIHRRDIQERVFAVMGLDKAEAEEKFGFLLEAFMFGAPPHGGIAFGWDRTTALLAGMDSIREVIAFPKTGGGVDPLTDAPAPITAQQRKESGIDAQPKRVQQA
test-details: Assay for Asp RNA synthetase-1 from Mycobacterium tuberculosis
Assay type: functional
Parameters: scale not given: direction of the effect not stated beside the values
test-settings: 30 µM
Listing of entries alongside the reported Percent Effect.
Answer in %, number only, no unit symbol.

Field: example entries. Status: answers known.
Cc1ccc(N2CC3(COCCN(Cc4nccs4)C3)OCC2=O)s1 (stereo not drawn) ... 7.04
COc1cc(C(=O)Nc2nc(C)no2)ccc1C ... -0.143
CC(NC(=O)N1CCN(CCc2ccccc2)CC1)c1nncn1C (stereo not drawn) ... -7.6
CCN(Cc1cccc2c1OCO2)C(=O)Nc1ccncc1 ... -0.0463
CCCC(C)C(=O)N1CCC(n2cccc2C(=O)OC)CC1 (stereo not drawn) ... 0.787
O=C(NCc1nn(-c2ccccc2)c2c1CCC2)N1CCSCC1 ... -2.32
Cc1noc(C)c1CN1CCN(Cc2nccn2C)C(C)C1 (stereo not drawn) ... -3.74

We now examine a further compound.
Query: Entry CCNC(=O)NC(=O)CSC(C)c1c(F)cccc1F (stereo not drawn) : reported Percent Effect = ?
Result: -1.51

----------
Property: Percent Effect; scope: individual compounds
tgt: Aspartate--tRNA(Asp/Asn) ligase (Mycobacterium tuberculosis (strain ATCC 25618 / H37Rv)) (UniProt P9WFW3)
test-details: Assay for Asp RNA synthetase-1 from Mycobacterium tuberculosis
Assay type: functional
Parameters: scale not given: direction of the effect not stated beside the values
test-settings: 30 µM
Use % as the unit, but write only the number.

CCn1ncc2c1CCCC2NCc1cc(Cl)c(OC)c(OC)c1 (stereo not given) ... -2.06
Cc1nc(C)n(CC2CCCN2CCCOc2ccc(F)cc2)n1 (stereo not given) ... -8.6

Then this compound:
Query: Record request: Percent Effect value, item Cc1cc(C)n(C2CCCN(C(=O)Cc3csc(C)n3)C2)n1 (stereo not given)
Result: -6.85

----------
tgt: Aspartate--tRNA(Asp/Asn) ligase (Mycobacterium tuberculosis (strain ATCC 25618 / H37Rv)) (UniProt P9WFW3)
test-details: Assay for Asp RNA synthetase-1 from Mycobacterium tuberculosis
Assay type: functional
Design: scale not given: direction of the effect not stated beside the values
test-settings: 30 µM
Entries and their measured Percent Effect follow.
Number only, in %; omit the unit.

Example cases with answers are listed next.
CN1CCCC(Cc2cncc(Br)c2)CC1 (stereo not given) ... -6.03
O=C(c1ccc(OCC2CC2)nc1)N1CCCC(n2cncn2)C1 (stereo not given) ... 1.48
Cc1ccc(C)n1-c1ccc(C(=O)NCCNc2ncccn2)cc1 ... 5.76
CCOCCn1nnc(C2(NC(=O)c3ccccc3)CCCC2)n1 ... -3.44
Cc1cccc(CO[C@@H]2CC[C@H]3[C@H]2OCCN3Cc2ccsc2)n1 ... 0.204

Query: Entry under review: Cc1cccc(-n2c(C)cc(C(=O)N3CCn4c(C)nnc4C3)c2C)c1 . Reported Percent Effect?
Result: 3.51

Query: Name the reported Percent Effect value associated with the compound COc1ccc(CNC(=O)C2(C#N)CCCC2)cc1
Result: 2.12

Query: Consider the compound Cn1nc(C2CCCN(C(=O)Cc3ccsc3)C2)c2nccnc21 (stereo not given) and give its measured Percent Effect.
Result: -0.402

Query: Which value of Percent Effect has been reported for Cn1ccc(C(=O)NCc2cccc(NC(=O)C3CCC3)c2)cc1=O in the records?
Result: -0.879

Query: What value of Percent Effect has been recorded for this entry: CC(C)NC(=O)[C@@H]1CCO[C@@H]2CCN(c3ncccn3)C[C@H]21
Result: 4.69

Query: Value lookup for Percent Effect; key = CCc1ncc2c(n1)CN(CC(=O)Nc1ccc(Cl)cn1)CC2
Result: 0.367

Query: What value of Percent Effect has been recorded for this entry: CCn1cc(CN2CCC(c3nnc(CN(C)C)n3CC)CC2)cn1
Result: -2.35

Query: Suppose we examine the compound CC(C)(C)c1nc(CN(Cc2cccs2)C2CCS(=O)(=O)C2)no1 (stereo not given) ; what Percent Effect value has been reported?
Result: 1.32

Query: Would you mind telling me what Percent Effect value was observed for O=C(N[C@@H]1CN(c2ncccn2)[C@@H]2CCCO[C@@H]21)c1cnccn1 ?
Result: 7.31

Query: I am curious: what Percent Effect value has been reported for COC(=O)CNC(=O)CSCc1nc(O)c2cc(C(C)C)sc2n1 ?
Result: -0.639

Query: // lookup Percent Effect for CC(C)N(C)S(=O)(=O)N(C)Cc1ccc2c(c1)OCO2
Result: -7.16

----------
Entries and their Percent Effect values follow.
tgt: Shiga toxin 2 (Escherichia coli O157:H7) (UniProt P09385+P09386)
test-details: E. coli 0.157:H7 Shiga Toxin SOP - stx2 screening assay
Type: functional
Set-up: scale not given: direction of the effect not stated beside the values
test-settings: 30 µM

O=C(CN1CCC(c2cccc(F)c2)C1)NCc1ccco1 (stereo not drawn) ... -21.6%
CN(C)C(=O)CS(=O)(=O)Cc1cc(Cl)c2c(c1)OCCCO2 ... 29.6%
CCc1nc(C2CCCN2Cc2nccn2Cc2ccccc2)no1 (stereo not drawn) ... 12.2%
CS(=O)(=O)N1CC[C@H]2C[C@@H](C(=O)N3CCOCC3)O[C@@H]2C1 ... 5.94%
COCC(=O)N1CCC2(CCN(Cc3ccccn3)CC2)CC1 ... -8.31%
O=C(CCNC(=O)c1ccoc1)NCc1ccccc1F ... 11.5%
CC(C)c1nc(N2CCN3CCCC3C2)c2cnn(C)c2n1 (stereo not drawn) ... -16.2%
CC(=O)N1CCC2(CCCN(C(=O)c3ccccc3)C2)C1 (stereo not drawn) ... -1.81%
Cc1noc(C)c1CNCC1CCN(CC(O)c2ccccc2)CC1 (stereo not drawn) ... -21.8%
CN(C)C(=O)Cc1nc(CN2CCCCC2Cn2cccn2)cs1 (stereo not drawn) ... -25.1%

Query: What does the record list as Percent Effect for Cc1cccc(C(=O)N2C[C@@H]3CCN(c4cccnc4)C[C@@H]3C2)c1 ?
Result: -5.99%

Query: Could you share which Percent Effect value was measured for Cc1ccc(-c2nnc(CN3CCOC(Cn4cccn4)C3)o2)cc1 (stereo not drawn) ?
Result: -10.3%

Query: Percent Effect lookup needed for Cc1noc(CCCC(=O)NC(C)c2cccnc2)n1 (stereo not drawn) , thanks.
Result: 31.2%

Query: May I ask what Percent Effect has been recorded for COc1ccc(N2CCC(C(=O)/N=c3/[nH]ccs3)CC2)nn1 ?
Result: -7.73%

Query: What does the record list as Percent Effect for COCCNS(=O)(=O)c1ccc2c(c1)CCN(C(=O)c1cncn1C)C2 ?
Result: -23.1%

Query: Param item = Cc1ccc(C(=O)N2CCC(Oc3ccc(F)cc3F)CC2)c(=O)[nH]1 ; retrieve measured Percent Effect.
Result: 30.4%

Query: What does the record list as Percent Effect for CN(Cc1ccc(F)cc1)C(=O)CN1CCOC(Cn2cncn2)C1 (stereo not drawn) ?
Result: -0.222%

Query: Name the reported Percent Effect value associated with the molecule CC(=O)Nc1nc(C2CCN(C(=O)c3cccnc3)CC2)cs1
Result: -3.89%

Query: Returns the measured Percent Effect for the input molecule. Input: CC(NC(N)=O)C(=O)N(C)CCCc1cc(-c2ccccc2)no1 (stereo not drawn)
Result: 22.8%

Query: I'd like to know its Percent Effect. The molecule in question is COCCOc1ccc(NC(=O)C2CCCN(C(N)=O)C2)cn1 (stereo not drawn)
Result: -2.19%

Query: Recorded Percent Effect of Cc1ccc(C(=O)CCC(=O)N2CCC(c3nncn3C)CC2)cc1 , please.
Result: -30.7%

Query: Look at this molecule and give its reported Percent Effect. CN(C)CC1CN(Cc2coc(-c3cccs3)n2)CCO1 (stereo not drawn)
Result: -25.6%

Cited source: ChEMBL document CHEMBL3988442
